// data source = patent US20250388582A1

- measurement target: PIKFYVE (Homo sapiens, UniProt Q9Y2I7)
- Sequence (Q9Y2I7 whole entry): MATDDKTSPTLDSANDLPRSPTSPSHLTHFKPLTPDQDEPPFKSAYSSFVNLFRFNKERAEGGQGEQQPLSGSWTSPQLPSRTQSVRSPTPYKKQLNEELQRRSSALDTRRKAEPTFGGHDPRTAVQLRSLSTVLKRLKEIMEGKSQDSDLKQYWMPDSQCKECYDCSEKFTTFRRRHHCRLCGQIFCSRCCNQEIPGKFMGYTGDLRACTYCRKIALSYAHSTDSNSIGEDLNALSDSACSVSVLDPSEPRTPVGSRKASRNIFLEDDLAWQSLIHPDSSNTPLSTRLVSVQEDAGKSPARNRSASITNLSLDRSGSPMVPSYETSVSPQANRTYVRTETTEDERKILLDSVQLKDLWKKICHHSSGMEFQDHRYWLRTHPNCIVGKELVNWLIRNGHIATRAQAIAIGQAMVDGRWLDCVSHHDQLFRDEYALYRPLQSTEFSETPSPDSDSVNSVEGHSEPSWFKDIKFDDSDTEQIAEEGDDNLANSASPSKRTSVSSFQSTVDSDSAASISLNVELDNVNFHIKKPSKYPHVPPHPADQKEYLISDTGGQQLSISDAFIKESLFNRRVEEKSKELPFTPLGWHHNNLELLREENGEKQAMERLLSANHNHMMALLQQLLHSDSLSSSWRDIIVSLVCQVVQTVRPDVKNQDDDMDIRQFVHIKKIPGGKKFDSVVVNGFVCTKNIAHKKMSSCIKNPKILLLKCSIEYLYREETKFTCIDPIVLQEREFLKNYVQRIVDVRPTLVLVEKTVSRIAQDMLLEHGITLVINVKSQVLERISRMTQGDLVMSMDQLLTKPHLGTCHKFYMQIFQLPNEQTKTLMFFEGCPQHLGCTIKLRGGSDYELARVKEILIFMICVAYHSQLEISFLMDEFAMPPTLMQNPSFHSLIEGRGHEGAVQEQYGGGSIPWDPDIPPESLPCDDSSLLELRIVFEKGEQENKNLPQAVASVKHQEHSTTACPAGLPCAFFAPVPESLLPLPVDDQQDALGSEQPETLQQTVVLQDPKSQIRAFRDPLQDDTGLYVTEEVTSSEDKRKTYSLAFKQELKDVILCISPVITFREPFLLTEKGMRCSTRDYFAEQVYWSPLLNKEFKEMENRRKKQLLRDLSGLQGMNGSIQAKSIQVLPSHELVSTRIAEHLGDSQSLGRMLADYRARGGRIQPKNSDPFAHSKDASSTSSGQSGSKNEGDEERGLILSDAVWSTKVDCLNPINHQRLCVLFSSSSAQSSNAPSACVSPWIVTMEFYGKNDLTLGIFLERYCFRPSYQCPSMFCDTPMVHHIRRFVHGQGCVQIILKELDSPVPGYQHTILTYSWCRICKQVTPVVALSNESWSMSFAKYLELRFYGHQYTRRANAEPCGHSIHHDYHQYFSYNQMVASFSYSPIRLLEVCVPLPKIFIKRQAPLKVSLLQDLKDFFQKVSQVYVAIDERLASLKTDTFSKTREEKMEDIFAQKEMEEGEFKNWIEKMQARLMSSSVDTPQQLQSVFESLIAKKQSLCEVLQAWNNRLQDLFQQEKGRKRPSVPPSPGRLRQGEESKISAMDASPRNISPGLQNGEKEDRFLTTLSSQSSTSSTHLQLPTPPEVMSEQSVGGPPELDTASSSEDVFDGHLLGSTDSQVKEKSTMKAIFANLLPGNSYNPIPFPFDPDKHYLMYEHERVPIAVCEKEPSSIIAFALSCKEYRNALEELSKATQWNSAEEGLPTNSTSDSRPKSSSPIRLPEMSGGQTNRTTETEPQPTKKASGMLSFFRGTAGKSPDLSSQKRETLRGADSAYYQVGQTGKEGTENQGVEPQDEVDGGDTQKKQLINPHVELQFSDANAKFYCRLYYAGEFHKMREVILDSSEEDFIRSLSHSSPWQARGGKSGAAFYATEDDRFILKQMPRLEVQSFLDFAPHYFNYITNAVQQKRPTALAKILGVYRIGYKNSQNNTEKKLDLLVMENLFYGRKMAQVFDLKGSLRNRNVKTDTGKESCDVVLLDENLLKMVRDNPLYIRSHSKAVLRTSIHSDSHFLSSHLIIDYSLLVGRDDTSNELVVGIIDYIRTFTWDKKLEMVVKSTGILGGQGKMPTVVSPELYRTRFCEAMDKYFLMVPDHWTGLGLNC
- method notes: NanoBRET TE Intracellular Kinase Assay, interaction of PIKFYVE and compounds in HEK293 cells
- condition label: IC50 class from BRET; HEK293 cells expressing PIKFYVE-NanoLuc; 2 hours incubation
observable: IC50

Q: For `Cc1cccc(/C=N/Nc2nc(N3CCOCC3)nc3c2ncn3C2CCN(C(=O)N(C)C)CC2)c1` , what is its reported IC50?
Result: 20 to 30 nM

Q: For `Cc1cccc(/C=N/Nc2nc(N3CCOCC3)nc3c2ncn3CC2CC2)c1` , what is its reported IC50?
Result: 20 to 30 nM

Q: For `Cc1cccc(/C=N/Nc2nc(N3CCOCC3)nc3c2ncn3CC(=O)c2ccccc2C(F)(F)F)c1` , what is its reported IC50?
Result: ≤ 10 nM

Q: For `Cc1cccc(/C=N/Nc2nc(N3CCOCC3)nc3c2ncn3CC2(C)COC2)c1` , what is its reported IC50?
Result: 20 to 30 nM

Q: For `Cc1cccc(/C=N/Nc2nc(N3CCOCC3)nc3c2ncn3-c2ccccc2)c1` , what is its reported IC50?
Result: ≤ 10 nM

Others:
Q: For `Cc1cccc(/C=N/Nc2nc(N3CCOCC3)nc3c2ncn3CC(=O)c2ccccc2C)c1` , what is its reported IC50?
Result: ≤ 10 nM

Q: For `Cc1cccc(/C=N/Nc2nc(N3CCOCC3)nc3c2ncn3-c2ccc(C(F)(F)F)cc2)c1` , what is its reported IC50?
Result: 10 to 20 nM

Q: For `Cc1cccc(/C=N/Nc2nc(N3CCOCC3)nc3c2ncn3-c2ccc(C#N)cn2)c1` , what is its reported IC50?
Result: ≤ 10 nM

====

- measurement target: human GST-PIKFYVE (Homo sapiens)
- Construct: GST; purchased Carna biosciences 11-118
- method notes: ADP-Glo kinase assay, enzyme inhibition activity against human PIKFYVE (Carna biosciences)
- Format: biochemical
- condition label: inhibitory activity at final compound concentration 10 nM; 1 hour at room temperature
observable: ADP-Glo kinase assay (%, 10 nM) (%)

Q: For `Cc1cccc(-c2ccn(-c3nc(N4CCOCC4)nc4c3ncn4CC(=O)c3ccccn3)n2)c1` , what is its reported ADP-Glo kinase assay (%, 10 nM)?
Result: 82.48

Q: For `COC(=O)N1CCC(n2cnc3c(N/N=C/c4cccc(C)c4)nc(N4CCOCC4)nc32)CC1` , what is its reported ADP-Glo kinase assay (%, 10 nM)?
Result: 73.33

Q: For `COc1ccc(-n2cnc3c(N/N=C/c4cccc(C)c4)nc(N4CCOCC4)nc32)cc1` , what is its reported ADP-Glo kinase assay (%, 10 nM)?
Result: 88.76

Q: For `Cc1cccc(/C=N/Nc2nc(N3CCOCC3)nc3nc(-c4cccnc4)ccc23)c1` , what is its reported ADP-Glo kinase assay (%, 10 nM)?
Result: 63.00

Q: For `Cc1cccc(/C=N/Nc2nc(N3CCOCC3)nc3c2ncn3CC(=O)c2cnccn2)c1` , what is its reported ADP-Glo kinase assay (%, 10 nM)?
Result: 58.10

Q: For `Cc1cccc(Nc2nc(N3CCOCC3)nc3c2ncn3/N=C/c2cccnc2)c1` , what is its reported ADP-Glo kinase assay (%, 10 nM)?
Result: 78.59

[a] Cc1cccc(/C=N/Nc2nc(N3CCOCC3)nc3c2ncn3CC(=O)c2cccc(Cl)c2)c1
[b] Cc1cccc(/C=N/n2cnc3c(Nc4ccc(Cl)cc4)nc(N4CCOCC4)nc32)c1
Q: Hi, I'm comparing two records. Which one has the lower ADP-Glo kinase assay (%, 10 nM), a or b ? // respond with label for picked entry
Result: b

====

- method notes: Microsomal metabolic stability assay
- Type: in vitro ADME, human or CD1 male mouse
- condition label: Clint class; 1 μM compound, 0.5 mg/ml microsomes, NADPH, UDPGA, Alamethicin; species not given
observable: Microsomal metabolic stability

Here's what some known entries look like.
Q: For `Cc1cccc(/C=N/Nc2nc(N3CCOCC3)nc3c2ncn3CC(=O)c2ccc[nH]2)c1` , what is its reported Microsomal metabolic stability?
Result: Medium (Medium 8.8~48,)

Q: For `COc1ccc(-n2cnc3c(N/N=C/c4cccc(C)c4)nc(N4CCOCC4)nc32)cc1` , what is its reported Microsomal metabolic stability?
Result: medium

Q: For `Cc1cccc(/C=N/Nc2nc(N3CCOCC3)nc3c2ncn3CC(=O)c2ccccc2Cl)c1` , what is its reported Microsomal metabolic stability?
Result: Low (Low <8.8,)

Q: For `COc1ccc(C(=O)Cn2cnc3c(N/N=C/c4cccc(C)c4)nc(N4CCOCC4)nc32)cc1` , what is its reported Microsomal metabolic stability?
Result: Medium (Medium 8.8~48,)

Others:
Q: For `Cc1cccc(-c2ccn(-c3nc(N4CCOCC4)nc4c3ncn4-c3ccccc3)n2)c1` , what is its reported Microsomal metabolic stability?
Result: Medium (Medium 8.8~48,)

Q: For `COc1cccc(-n2cnc3c(N/N=C/c4cccc(C)c4)nc(N4CCOCC4)nc32)c1` , what is its reported Microsomal metabolic stability?
Result: Medium (Medium 8.8~48,)

Q: For `Cc1cccc(/C=N/Nc2nc(N3CCOCC3)nc3c2nc(C)n3CC(=O)c2ccccn2)c1` , what is its reported Microsomal metabolic stability?
Result: Medium (Medium 8.8~48,)

Q: For `Cc1cccc(/C=N/Nc2nc(N3CCOCC3)nc3c2ncn3-c2cccc(Cl)c2)c1` , what is its reported Microsomal metabolic stability?
Result: Medium (Medium 8.8~48,)

Q: For `Cc1cccc(/C=N/Nc2nc(N3CCOCC3)nc3c2ncn3-c2ccc(F)cn2)c1` , what is its reported Microsomal metabolic stability?
Result: Medium (Medium 8.8~48,)

Q: For `Cc1cccc(/C=N/Nc2nc(N3CCOCC3)nc3c2ncn3-c2cccc(N(C)C)c2)c1` , what is its reported Microsomal metabolic stability?
Result: low

====

- measurement target: human GST-PIKFYVE (Homo sapiens, UniProt Q9Y2I7)
- Construct: GST; purchased Carna biosciences 11-118
- method notes: ADP-Glo kinase assay, enzyme inhibition activity against human PIKFYVE (Carna biosciences)
- Type: biochemical
- condition label: inhibitory activity at final compound concentration 10 nM; 1 hour at room temperature
observable: ADP-Glo kinase assay (%, 10 nM) (%)

Q: Lookup: ADP-Glo kinase assay (%, 10 nM) / human GST-PIKFYVE (Homo sapiens, UniProt Q9Y2I7) / `Cc1cccc(/C=N/Nc2nc(N3CCOCC3)nc3c2ncn3C2CCN(C(=O)N3CCOCC3)CC2)c1`
Result: 64.66

Q: Lookup: ADP-Glo kinase assay (%, 10 nM) / human GST-PIKFYVE (Homo sapiens, UniProt Q9Y2I7) / `COc1ccccc1-n1cnc2c(N/N=C/c3cccc(C)c3)nc(N3CCOCC3)nc21`
Result: 87.81

Q: Lookup: ADP-Glo kinase assay (%, 10 nM) / human GST-PIKFYVE (Homo sapiens, UniProt Q9Y2I7) / `Cc1cccc(/C=N/Nc2nc(N3C[C@H]4C[C@@H]3CO4)nc3c2ncn3-c2cccnc2)c1`
Result: 91.62

Q: Lookup: ADP-Glo kinase assay (%, 10 nM) / human GST-PIKFYVE (Homo sapiens, UniProt Q9Y2I7) / `Cc1cccc(/C=N/Nc2nc(N3CCOCC3)nc3c2ncn3CC(=O)c2cccc(C#N)c2)c1`
Result: 76.04

Q: Lookup: ADP-Glo kinase assay (%, 10 nM) / human GST-PIKFYVE (Homo sapiens, UniProt Q9Y2I7) / `Cc1cccc(/C=N/Nc2nc(N3CCOCC3)nc3c2ncn3CC(=O)c2ccccc2C(F)(F)F)c1`
Result: 80.86

Q: Lookup: ADP-Glo kinase assay (%, 10 nM) / human GST-PIKFYVE (Homo sapiens, UniProt Q9Y2I7) / `Cc1cccc(/C=N/Nc2nc(N3CCOCC3)nc3c2ncn3CCc2ccccc2)c1`
Result: 89.87

Q: Lookup: ADP-Glo kinase assay (%, 10 nM) / human GST-PIKFYVE (Homo sapiens, UniProt Q9Y2I7) / `Cc1cccc(/C=N/Nc2nc(N3CCOCC3)nc3c2ncn3C2CN(C(=O)c3cccnc3)C2)c1`
Result: 60.95

Q: Lookup: ADP-Glo kinase assay (%, 10 nM) / human GST-PIKFYVE (Homo sapiens, UniProt Q9Y2I7) / `Cc1cccc(/C=N/Nc2nc(N3CCOCC3)nc3c2cnn3-c2ccncc2)c1`
Result: 63.02

Q: Lookup: ADP-Glo kinase assay (%, 10 nM) / human GST-PIKFYVE (Homo sapiens, UniProt Q9Y2I7) / `Cc1cccc(/C=N/Nc2nc(N3CCOCC3)nc3c2ncn3C2CN(S(C)(=O)=O)C2)c1`
Result: 70.06

Q: Lookup: ADP-Glo kinase assay (%, 10 nM) / human GST-PIKFYVE (Homo sapiens, UniProt Q9Y2I7) / `Cc1cccc(/C=N/n2cnc3c(Nc4ccncc4)nc(N4CCOCC4)nc32)c1`
Result: 90.77

Q: Lookup: ADP-Glo kinase assay (%, 10 nM) / human GST-PIKFYVE (Homo sapiens, UniProt Q9Y2I7) / `Cc1cccc(/C=N/n2cnc3c(Nc4ccccc4)nc(N4CCOCC4)nc32)c1`
Result: 63.03

Q: Lookup: ADP-Glo kinase assay (%, 10 nM) / human GST-PIKFYVE (Homo sapiens, UniProt Q9Y2I7) / `Cc1cccc(/C=N/n2cnc3c(Nc4cccnc4C)nc(N4CCOCC4)nc32)c1`
Result: 61.38

Q: Lookup: ADP-Glo kinase assay (%, 10 nM) / human GST-PIKFYVE (Homo sapiens, UniProt Q9Y2I7) / `Cc1cccc(/C=N/Nc2nc(N3CCOCC3)nc3c2ncn3C2CCN(C(=O)N(C)C)CC2)c1`
Result: 66.88

Q: Lookup: ADP-Glo kinase assay (%, 10 nM) / human GST-PIKFYVE (Homo sapiens, UniProt Q9Y2I7) / `Cc1cccc(/C=N/Nc2nc(N3CCOCC3)nc3c2ncn3CCc2cccnc2)c1`
Result: 83.61

Q: Lookup: ADP-Glo kinase assay (%, 10 nM) / human GST-PIKFYVE (Homo sapiens, UniProt Q9Y2I7) / `COc1cccc(/C=N/n2cnc3c(Nc4ccncc4)nc(N4CCOCC4)nc32)c1`
Result: 90.96

Q: Lookup: ADP-Glo kinase assay (%, 10 nM) / human GST-PIKFYVE (Homo sapiens, UniProt Q9Y2I7) / `Cc1cccc(/C=N/Nc2nc(N3CCOCC3)nc3c2ncn3CC(=O)c2ccncc2)c1`
Result: 59.60

Q: Lookup: ADP-Glo kinase assay (%, 10 nM) / human GST-PIKFYVE (Homo sapiens, UniProt Q9Y2I7) / `Cc1cccc(/C=N/Nc2nc(N3CCOCC3)nc3c2ncn3-c2ccc(N(C)C)cc2)c1`
Result: 84.48

Q: Lookup: ADP-Glo kinase assay (%, 10 nM) / human GST-PIKFYVE (Homo sapiens, UniProt Q9Y2I7) / `Cc1cccc(/C=N/Nc2nc(N3CCOCC3)nc3c2nc(C)n3CC(=O)c2ccncc2)c1`
Result: 65.33

Q: Lookup: ADP-Glo kinase assay (%, 10 nM) / human GST-PIKFYVE (Homo sapiens, UniProt Q9Y2I7) / `Cc1cccc(/C=N/Nc2nc(N3CCOCC3)nc3c2ncn3CC(=O)c2cccc(C(F)(F)F)c2)c1`
Result: 62.80

Q: Lookup: ADP-Glo kinase assay (%, 10 nM) / human GST-PIKFYVE (Homo sapiens, UniProt Q9Y2I7) / `Cc1cccc(/C=N/Nc2nc(N3CCOCC3)nc3c2ncn3-c2ccnc(C(F)(F)F)c2)c1`
Result: 84.50

Q: Lookup: ADP-Glo kinase assay (%, 10 nM) / human GST-PIKFYVE (Homo sapiens, UniProt Q9Y2I7) / `Cc1cccc(/C=N/Nc2nc(N3CCOCC3)nc3c2ncn3CC(=O)C2CC2)c1`
Result: 58.67

Q: Lookup: ADP-Glo kinase assay (%, 10 nM) / human GST-PIKFYVE (Homo sapiens, UniProt Q9Y2I7) / `Cc1cccc(/C=N/Nc2nc(N3CCOCC3)nc3c2ncn3CC(=O)c2cc(C(F)(F)F)ccn2)c1`
Result: 67.10

Q: Lookup: ADP-Glo kinase assay (%, 10 nM) / human GST-PIKFYVE (Homo sapiens, UniProt Q9Y2I7) / `Cc1cccc(/C=N/Nc2nc(N3CCOCC3)nc3c2ncn3-c2cccc(OC(F)(F)F)c2)c1`
Result: 65.10

Q: Lookup: ADP-Glo kinase assay (%, 10 nM) / human GST-PIKFYVE (Homo sapiens, UniProt Q9Y2I7) / `Cc1cccc(/C=N/Nc2nc(N3CCOCC3)nc3c2ncn3-c2cccnc2)c1`
Result: 85.95

Q: Lookup: ADP-Glo kinase assay (%, 10 nM) / human GST-PIKFYVE (Homo sapiens, UniProt Q9Y2I7) / `Cc1cccc(/C=N/Nc2nc(N3CCOCC3)nc3c2ncn3CC(=O)c2cccnc2)c1`
Result: 65.48

Q: Lookup: ADP-Glo kinase assay (%, 10 nM) / human GST-PIKFYVE (Homo sapiens, UniProt Q9Y2I7) / `Cc1cccc(/C=N/Nc2nc(N3CCOCC3)nc3c2ncn3-c2ccc(O)nc2)c1`
Result: 80.06

Q: Lookup: ADP-Glo kinase assay (%, 10 nM) / human GST-PIKFYVE (Homo sapiens, UniProt Q9Y2I7) / `Cc1cccc(/C=N/Nc2nc(N3CCOCC3)nc3c2ncn3-c2ccnc(C)c2)c1`
Result: 92.50

Q: Lookup: ADP-Glo kinase assay (%, 10 nM) / human GST-PIKFYVE (Homo sapiens, UniProt Q9Y2I7) / `Cc1cccc(/C=N/Nc2nc(N3CCOCC3)nc3c2ncn3-c2ccccn2)c1`
Result: 87.24

Q: Lookup: ADP-Glo kinase assay (%, 10 nM) / human GST-PIKFYVE (Homo sapiens, UniProt Q9Y2I7) / `Cc1cccc(/C=N/Nc2nc(N3CCOCC3)nc3c2ncn3C2CCN(C(=O)c3cccnc3)CC2)c1`
Result: 63.65

Q: Lookup: ADP-Glo kinase assay (%, 10 nM) / human GST-PIKFYVE (Homo sapiens, UniProt Q9Y2I7) / `Cc1cccc(/C=N/Nc2nc(N3CCOCC3)nc3c2ncn3CC(C)C)c1`
Result: 69.26

Q: Lookup: ADP-Glo kinase assay (%, 10 nM) / human GST-PIKFYVE (Homo sapiens, UniProt Q9Y2I7) / `Cc1cccc(/C=N/Nc2nc(N3CCOCC3)nc3c2ncn3-c2sc(C)nc2C)c1`
Result: 89.77

Q: Lookup: ADP-Glo kinase assay (%, 10 nM) / human GST-PIKFYVE (Homo sapiens, UniProt Q9Y2I7) / `Cc1cccc(/C=N/Nc2nc(N3CCOCC3)nc3c2ncn3-c2ncccc2C)c1`
Result: 68.43

Q: Lookup: ADP-Glo kinase assay (%, 10 nM) / human GST-PIKFYVE (Homo sapiens, UniProt Q9Y2I7) / `FC(F)(F)c1cccc(/C=N/n2cnc3c(Nc4ccncc4)nc(N4CCOCC4)nc32)c1`
Result: 79.60
